- ASSAYED_TARGET: Potassium voltage-gated channel subfamily KQT member 2 (Rattus norvegicus) (UniProt O88943)
- Sequence (O88943 whole entry, looked up): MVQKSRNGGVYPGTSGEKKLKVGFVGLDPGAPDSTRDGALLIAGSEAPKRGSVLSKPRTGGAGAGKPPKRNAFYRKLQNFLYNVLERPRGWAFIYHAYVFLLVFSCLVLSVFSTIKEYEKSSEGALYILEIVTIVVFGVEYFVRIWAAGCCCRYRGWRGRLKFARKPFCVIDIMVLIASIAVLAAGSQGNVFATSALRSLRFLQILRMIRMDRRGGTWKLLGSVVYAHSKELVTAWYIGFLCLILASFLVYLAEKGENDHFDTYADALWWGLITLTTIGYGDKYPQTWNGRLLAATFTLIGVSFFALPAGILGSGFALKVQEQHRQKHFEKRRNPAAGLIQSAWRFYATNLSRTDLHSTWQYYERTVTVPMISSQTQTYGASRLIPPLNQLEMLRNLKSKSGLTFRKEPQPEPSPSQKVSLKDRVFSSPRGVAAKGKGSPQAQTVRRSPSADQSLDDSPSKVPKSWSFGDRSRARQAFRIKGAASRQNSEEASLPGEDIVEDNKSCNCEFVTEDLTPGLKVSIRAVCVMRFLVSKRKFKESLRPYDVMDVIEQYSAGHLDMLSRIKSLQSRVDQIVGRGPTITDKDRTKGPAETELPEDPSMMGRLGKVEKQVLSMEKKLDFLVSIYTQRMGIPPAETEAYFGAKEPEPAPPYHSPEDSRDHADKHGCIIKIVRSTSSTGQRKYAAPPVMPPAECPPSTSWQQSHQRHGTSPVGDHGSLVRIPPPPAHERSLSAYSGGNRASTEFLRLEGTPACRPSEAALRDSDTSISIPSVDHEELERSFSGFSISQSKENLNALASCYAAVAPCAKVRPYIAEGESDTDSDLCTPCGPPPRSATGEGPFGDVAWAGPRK
- PROTOCOL: rat KCNQ2 channel potentiation, selectivity assay for KCNQ1 potentiator project, KCNQ2-CHO-K1 cells (AID 493009);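 note: assay conditions were tuned for KCNQ1 rather than KCNQ2 modulators; signal is max minus min fluorescence divided by baseline after thallium stimulus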
- EXPERIMENTAL_CONDITIONS: FluxOR thallium flux fluorescence, at 10 µM, scaled: buffer 0, activator control 100
Calls of active or inactive are those of the source.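 Rule for the calls: active = mean duplicate potentiation above the buffer control mean plus 5 SD of buffer wells; inactive = the rest.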
Possible outcomes: active, inactive

# MOLECULE, CLASS
rows = [
    ("O=C(NCc1ccccc1)C(=O)NCC1CCCN1S(=O)(=O)c1cccs1 (stereo not given)", "inactive"),
    ("Cc1cc(C)cc(-n2ccnc2SCC(=O)Nc2nccs2)c1", "inactive"),
    ("COC(=O)c1c(N)sc2c1CCN(c1ncc(C(F)(F)F)cc1Cl)C2", "active"),
    ("Cc1ccc(-n2c(C)cc(/C=N/NC(=O)c3ccncc3)c2C)cc1C", "inactive"),
    ("CCOc1ccc(C(=O)NC(=S)N(Cc2ccccc2)Cc2ccccc2)cc1", "active"),
    ("O=C(CNS(=O)(=O)c1ccc([N+](=O)[O-])cc1)N/N=C\\c1ccc(O)cc1", "active"),
    ("CCOc1cccc2sc(NC(=O)c3ccc(Br)s3)nc12", "inactive"),
    ("CC1CCN(C(=S)NC(=O)c2cccs2)CC1", "active"),
    ("O=Cc1cc2ccccc2nc1SCCCF", "inactive"),
    ("COCCOC(=O)/C(=C/c1ccc(OC(=O)c2ccccc2)cc1)C(C)=O", "inactive"),
]

----------
- PROTOCOL: calcium flux inhibitors in TRPC4/5HT1a cells, confirmation, counter-screen for TRPC4 inhibitor project, cell-based, second counter screen, HEK293 TRPC4/5HT1a, Fluo-4 (AID 434978)
- EXPERIMENTAL_CONDITIONS: Fluo-4 calcium flux, at 10 µM, serotonin added to trigger calcium flux
Active and inactive are the calls of the source.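 How the source made its calls: active means primary screen active whose calcium signal fell more than 3 SD beyond the full-serotonin control mean in both duplicate plates; inactive means the rest.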
Possible outcomes: true = active, false = inactive

# COMPOUND, CLASS
records = [
    ("CCCCc1cc(O)c(CCCC)c(O)c1", "false"),
    ("COc1ccccc1NS(=O)(=O)c1cccc(C(=O)NC2CCN(Cc3ccccc3)CC2)c1", "false"),
    ("CC(C)c1ccc(NC(=S)N(C)CCc2ccccn2)cc1", "false"),
    ("O=C(COc1ccccc1)NNC(=S)NC(=O)c1ccc(Cl)cc1Cl", "false"),
    ("CN(C)C(CNC(=O)/C=C/c1cccc(Cl)c1)c1ccccc1 (stereo not given)", "false"),
    ("Cc1ccc(NS(=O)(=O)c2ccc(C(=O)N3CC(C)CC(C)C3)cc2)cc1 (stereo not given)", "false"),
    ("c1ccc(Nc2nc(Nc3ccccc3)nc(N3CCNCC3)n2)cc1", "false"),
    ("O=c1c2cc(Br)ccc2nc(-c2ccc(Cl)cc2)n1O", "false"),
    ("Cc1cc(NCc2ccccc2)nc2ccccc12", "true"),
    ("Cc1ccc(N2CCN(c3ccc(NCc4nc5ccccc5n4C)cc3)CC2)cc1", "false"),
    ("COc1cccc(CC2(CO)CCCN(Cc3ccccc3-c3ccco3)C2)c1 (stereo not given)", "false"),
    ("COc1cc(OC)cc(C(=O)NC2CCCN(Cc3ccc(Cl)cc3)C2)c1 (stereo not given)", "false"),
    ("C/C=C(\\C)CN1CCC(n2nccc2NC(=O)CCc2ccccc2)CC1", "false"),
    ("CC1CC(C)CN(CCCNC(=O)c2nn(C)c3c2CS(=O)(=O)c2ccccc2-3)C1 (stereo not given)", "false"),
    ("Cc1ccc(S(=O)(=O)NCCC(=O)NCC(c2ccco2)N2CCCCC2)cc1C (stereo not given)", "false"),
    ("Cc1ccccc1Nc1nc(NCc2ccco2)c2ccccc2n1", "true"),
    ("Cc1cc(-c2nn(-c3ccccc3F)cc2CNCCc2cnc[nH]2)c(C)s1", "false"),
    ("O=C(O)c1ccc(-c2ccc(/C=c3/sc4nc5ccccc5n4c3=O)o2)cc1Cl", "false"),
    ("Cc1ccccc1NC(=S)NCCc1ccccn1", "false"),
    ("O=S(=O)(c1ccccc1)c1nnn2c1nc(NC1CCN(Cc3ccccc3)CC1)c1cc(Cl)ccc12", "false"),
]

----------
- Test system: TRPC4 beta (transient receptor potential cation channel C4), mouse
- PROTOCOL: positive allosteric modulators of mouse TRPC4, confirmation, cell-based, Fluo-4, HEK293 TRPC4beta/mu-opioid (AID 2555)
- EXPERIMENTAL_CONDITIONS: DAMGO EC20, Fluo-4 calcium flux, at 10 µM
Calls of active or inactive are those of the source.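 Rule for the calls: active = primary screen hit whose calcium fluorescence ratio, in both repeats, exceeds the weak agonist control mean by 3 SD; inactive = the rest.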
Possible outcomes: active, inactive

# COMPOUND, CLASS
data = [
    ("CN(C)CCCN(C(=O)c1ccc(S(=O)(=O)N2CCOCC2)cc1)c1nc2ccc(F)cc2s1", "inactive"),
    ("COc1ccc(C(CCNCc2ccc(N(C)C)cc2)c2ccccc2OC)cc1 (configuration not stated)", "inactive"),
    ("CC1CCCN(CCCNC(=O)c2ccc3c(c2)N(Cc2ccccc2F)C(=O)c2ccccc2S3(=O)=O)C1 (configuration not stated)", "inactive"),
    ("COc1ccc(N/C(C)=C2/C(=O)C(=O)N(CCO)C2c2ccc(Br)cc2)cc1 (configuration not stated)", "inactive"),
    ("O=C(NC(=S)NNC(=O)c1ccco1)c1ccc(Br)cc1", "inactive"),
    ("O=C1/C(=C\\c2cc(Cl)c(O)c(Cl)c2)SC(=S)N1Cc1ccccc1", "active"),
    ("Cc1ccc(Cl)cc1NC(=O)CNCC(c1ccccc1)N(C)C (configuration not stated)", "inactive"),
    ("CN(C)C(CNC(=S)Nc1cccc(Cl)c1)c1ccccc1 (configuration not stated)", "inactive"),
    ("COC(=O)c1ccccc1N=Nc1c(N)[nH][nH]c1=O", "active"),
    ("CC(C)(C)c1ccccc1NC(=O)NC1CCN(Cc2c(F)cccc2Cl)CC1", "inactive"),
    ("CN(CCOc1ccc(Cl)cc1)CC(O)c1ccccc1 (configuration not stated)", "inactive"),
    ("Cc1cc(OCCCCn2ccnc2)cc(C)c1Cl", "inactive"),
    ("O=c1c2cc(Br)ccc2nc(-c2ccc(Cl)cc2)n1O", "inactive"),
    ("COc1cccc(CNCc2ccccn2)c1OC", "inactive"),
    ("CCCN(CCC)CCCNc1ccc2nnc(-c3ccc(F)cc3)n2n1", "inactive"),
    ("O=C(c1cccs1)N1CCN(c2ncc(Br)cn2)CC1", "inactive"),
    ("CCc1ccc(C(CNc2nc(C(F)(F)F)nc3ccccc23)N(C)C)cc1 (configuration not stated)", "inactive"),
]

----------
- ASSAYED_TARGET: Potassium voltage-gated channel subfamily KQT member 2 (Rattus norvegicus)
- PROTOCOL: rat KCNQ2 channel potentiation, selectivity assay for KCNQ1 potentiator project, KCNQ2-CHO-K1 cells (AID 493009);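 note: assay conditions were tuned for KCNQ1 rather than KCNQ2 modulators; signal is max minus min fluorescence divided by baseline after thallium stimulus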
- EXPERIMENTAL_CONDITIONS: FluxOR thallium flux fluorescence, at 10 µM, scaled: buffer 0, activator control 100
Activity calls are given as the source filed them.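 The calls were made as follows: active = mean duplicate potentiation above the buffer control mean plus 5 SD of buffer wells; inactive = the rest.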
Possible outcomes: active, inactive

# MOLECULE, CLASS
rows = [
    ("Cc1cc(Nc2cc(N3CCN(C)CC3)nc(Sc3ccc(NC(=O)C4CC4)cc3)n2)n[nH]1", "active"),
    ("CCc1ccc2nc(N(CCCN(C)C)C(=O)c3ccc(S(=O)(=O)N4CCCc5ccccc54)cc3)sc2c1", "inactive"),
    ("N#Cc1ccccc1OCCN1C(=O)c2ccccc2C1=O", "inactive"),
    ("Cc1ccccc1C(=O)c1c[nH]c(C(=O)N2CCN(c3ccccc3F)CC2)c1", "inactive"),
    ("CCC/C=N/NC(=O)c1[nH]c2c([N+](=O)[O-])cccc2c1C", "inactive"),
    ("COc1ccc(NC(=O)CN(C)C(=O)c2ccc(N3CCOCC3)c([N+](=O)[O-])c2)cc1", "active"),
    ("CCOc1ccccc1NC(=O)C1CCCN(S(=O)(=O)c2ccccc2)C1 (centres undefined)", "inactive"),
    ("CN(C(=O)c1ccc2c(c1)OCO2)C1CCCCC1", "inactive"),
    ("CCCCN(CCCC)C(=S)NC(=O)c1ccccc1Cl", "active"),
    ("CCOC(=O)c1sc(NC(=S)NC(=O)c2ccc(OC)cc2)nc1C", "inactive"),
    ("CCCCN(CCCC)C(=S)N/N=C/c1c(C)[nH]n(-c2ccccc2)c1=O", "active"),
    ("S=c1nc(Cc2ccccc2)[nH]c2ccccc12", "active"),
    ("S=c1[nH]c(-c2cccs2)cn1-c1ccccc1", "active"),
    ("S=c1[nH]c(-c2ccccc2)cn1/N=C/c1ccc(Br)cc1", "inactive"),
    ("CN1CCN(c2ccc(S(=O)(=O)N3CCCCC3)cc2NC(=O)COc2cccc(Cl)c2)CC1", "inactive"),
    ("OCCN(CCO)c1ccc(C(c2ccccc2Cl)c2ccc(N(CCO)CCO)cc2Cl)c(Cl)c1", "inactive"),
    ("CCOc1ccccc1NC(=O)CCC(=O)Nc1ccccc1OCC", "inactive"),
    ("CCN(CC(=O)Nc1c(F)cccc1F)C(=O)C1CCN(C(=O)c2ccc(Cl)cc2)CC1", "inactive"),
    ("O=C(CC1C(=O)NCCN1Cc1cccc(F)c1)NCCCN1CCCC1=O (centres undefined)", "inactive"),
    ("Cc1cc(C)c(NC(=O)CN2C(=O)NC3(CCCc4ccccc43)C2=O)c(Cl)c1 (centres undefined)", "inactive"),
    ("COc1cc(OC)cc(C(=O)N2CC(=O)Nc3ccccc32)c1", "inactive"),
    ("CCSC(=S)c1c(C)[nH]n(-c2ccccc2)c1=O", "active"),
    ("Oc1ccc(Br)cc1C=Nc1ccc(Cl)cc1", "inactive"),
    ("C=CCNC(=S)NNC(=O)COc1c(Cl)cc(Cl)cc1Cl", "inactive"),
]
